Experiment: Rat pharmacokinetics, cassette dosed free Compound (14)
Type: in vivo
Details: in vivo, PO 1 mg/kg, 5 mL/kg (5-in-One)
Assay Endpoint: Tmax

Requested field: Tmax. Item: Cc1nc(NC(=O)N2CCC[C@H]2C(N)=O)sc1-c1cc(C(C)(C)C(F)(F)F)oc(=O)c1 30 min

###

Experiment: Mouse pharmacokinetics, cassette dosed free drug
Type: in vivo
Conditions: in vivo, cassette, IV 0.1 mg/kg, 1 mL/kg (10-in-One), read-out: AUCiv
Recorded AUC, one value per entry.
Just the number please, in ng·h/mL, no unit attached.

Requested field: AUC. Item: Cc1nc(NC(=O)N2CCC[C@H]2C(N)=O)sc1-c1cc(C(C)(C)C(F)(F)F)oc(=O)c1 [Compound (14)] 17.8

Requested field: AUC. Item: Cc1nc(NC(=O)N2CCC[C@H]2C(N)=O)sc1-c1ccnc(C(C)(C)C(F)(F)F)c1 [BYL719, alpelisib, reference compound] 73.9

###

Test: Rat pharmacokinetics, cassette dosed free Compound (14)
Format: in vivo
Conditions: in vivo, IV 0.1 mg/kg, 1 mL/kg (10-in-One), read-out: C5min
Assay Endpoint: concentration at 5 min (ng/mL)
Just the number please, in ng/mL, no unit attached.

Requested field: concentration at 5 min. Item: Cc1nc(NC(=O)N2CCC[C@H]2C(N)=O)sc1-c1cc(C(C)(C)C(F)(F)F)oc(=O)c1 114

###

Molecular target: PI3Kα (Homo sapiens (Human))
Assay: PI3Kα kinase (biochemical) assay
Settings: refers to Table 5; read-out: PI3Kα inhibitor in biochemical assays
Assay Endpoint: IC50

Requested field: IC50. Item: Cc1nc(NC(=O)N2CCC[C@H]2C(N)=O)sc1-c1cc(C(C)(C)C(F)(F)F)oc(=O)c1 < 0.1 µM

###

Target: PI3Kα (Homo sapiens (Human), UniProt P42336)
Sequence (P42336 whole entry): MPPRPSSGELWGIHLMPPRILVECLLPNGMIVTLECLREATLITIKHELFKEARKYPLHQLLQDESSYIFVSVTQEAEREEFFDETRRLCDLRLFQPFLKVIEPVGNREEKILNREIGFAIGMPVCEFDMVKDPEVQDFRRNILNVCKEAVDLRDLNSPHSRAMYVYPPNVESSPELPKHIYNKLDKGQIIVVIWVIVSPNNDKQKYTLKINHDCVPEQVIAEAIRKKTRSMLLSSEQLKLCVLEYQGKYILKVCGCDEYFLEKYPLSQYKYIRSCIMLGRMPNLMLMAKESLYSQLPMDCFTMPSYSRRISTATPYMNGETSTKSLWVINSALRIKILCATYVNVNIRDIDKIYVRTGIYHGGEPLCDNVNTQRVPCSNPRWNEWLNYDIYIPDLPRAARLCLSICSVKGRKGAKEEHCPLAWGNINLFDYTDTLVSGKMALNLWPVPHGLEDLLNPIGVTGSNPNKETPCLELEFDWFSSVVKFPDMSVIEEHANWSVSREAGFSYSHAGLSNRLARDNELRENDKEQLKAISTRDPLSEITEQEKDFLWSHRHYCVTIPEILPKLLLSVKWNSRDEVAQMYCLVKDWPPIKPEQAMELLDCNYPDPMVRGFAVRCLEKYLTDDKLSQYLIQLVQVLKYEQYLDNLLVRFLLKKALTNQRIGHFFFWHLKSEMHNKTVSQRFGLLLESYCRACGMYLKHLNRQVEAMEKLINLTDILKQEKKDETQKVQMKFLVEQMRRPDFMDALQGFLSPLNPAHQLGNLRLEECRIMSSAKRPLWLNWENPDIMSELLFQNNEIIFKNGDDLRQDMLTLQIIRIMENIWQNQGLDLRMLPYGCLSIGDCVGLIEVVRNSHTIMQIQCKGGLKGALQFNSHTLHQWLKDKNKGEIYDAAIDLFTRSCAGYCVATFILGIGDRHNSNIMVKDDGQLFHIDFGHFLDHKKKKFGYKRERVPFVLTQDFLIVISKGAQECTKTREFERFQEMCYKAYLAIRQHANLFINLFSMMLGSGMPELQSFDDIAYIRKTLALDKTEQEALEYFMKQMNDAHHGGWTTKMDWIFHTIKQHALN
Sequence (P27986 whole entry partner): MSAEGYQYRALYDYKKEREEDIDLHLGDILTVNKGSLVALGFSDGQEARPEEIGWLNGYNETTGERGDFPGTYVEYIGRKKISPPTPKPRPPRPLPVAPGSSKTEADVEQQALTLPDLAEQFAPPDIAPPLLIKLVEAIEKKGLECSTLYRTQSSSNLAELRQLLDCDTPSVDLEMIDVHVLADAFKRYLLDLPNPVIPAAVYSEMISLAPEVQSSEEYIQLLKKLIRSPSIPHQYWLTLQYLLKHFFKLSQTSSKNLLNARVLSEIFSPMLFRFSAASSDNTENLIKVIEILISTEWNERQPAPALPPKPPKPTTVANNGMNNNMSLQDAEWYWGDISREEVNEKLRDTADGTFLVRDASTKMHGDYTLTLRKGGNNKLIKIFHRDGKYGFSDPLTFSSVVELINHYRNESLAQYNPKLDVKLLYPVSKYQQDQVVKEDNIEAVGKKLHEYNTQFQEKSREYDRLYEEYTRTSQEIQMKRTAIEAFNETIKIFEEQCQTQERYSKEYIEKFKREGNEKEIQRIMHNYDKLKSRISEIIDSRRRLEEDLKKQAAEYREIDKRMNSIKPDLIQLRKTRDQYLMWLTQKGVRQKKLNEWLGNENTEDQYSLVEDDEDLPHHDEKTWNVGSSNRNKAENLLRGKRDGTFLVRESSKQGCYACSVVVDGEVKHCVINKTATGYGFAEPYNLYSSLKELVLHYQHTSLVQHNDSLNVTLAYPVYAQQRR
Experiment: PI3Kα kinase (biochemical) assay
Settings: Table 5, pyrone inhibitors; read-out: PI3Kα (IC50)
Recorded IC50, one value per entry.

Examples with their reported IC50 follow.
CCOC(=O)[C@@H]1CCN(C(=O)Nc2nc(C)c(-c3cc(C(C)(C)C(F)(F)F)oc(=O)c3)s2)[C@@H]1C(N)=O < 100 nM
Cc1cc(-c2sc(NC(=O)N3CCC[C@H]3C(N)=O)nc2C)cc(=O)o1 < 500 nM
CCOC(=O)[C@H]1C[C@@H](C(N)=O)N(C(=O)Nc2nc(C)c(-c3cc(C(C)(C)C(F)(F)F)oc(=O)c3)s2)C1 < 100 nM
Cc1nc(NC(=O)N2CCC[C@H]2C(N)=O)sc1-c1cc(C(C)(C)C(F)(F)F)oc(=O)c1 < 100 nM
CCOC(=O)[C@@H]1C[C@@H](C(N)=O)N(C(=O)Nc2nc(C)c(-c3cc(C(C)(C)C(F)(F)F)oc(=O)c3)s2)C1 < 100 nM

Could you now consider this next compound?
Requested field: IC50. Item: Cc1nc(NC(=O)N2CCC[C@H]2C(N)=O)sc1-c1cc(C(C)C)oc(=O)c1 < 100 nM

###

Molecular target: PI3Kα (Homo sapiens (Human), UniProt P42336)
Experiment: PI3Kα kinase (biochemical) assay
Assay Endpoint: PI3Kα inhibition in biochemical assay (in words)

Mol Smiles	Target Desc	Readout Value
CCOC(=O)[C@H]1C[C@@H](C(N)=O)N(C(=O)Nc2nc(C)c(-c3cc(C(C)(C)C(F)(F)F)oc(=O)c3)s2)C1	PI3Kα (Homo sapiens (Human), UniProt P42336)	active
CCOC(=O)[C@@H]1C[C@@H](C(N)=O)N(C(=O)Nc2nc(C)c(-c3cc(C(C)(C)C(F)(F)F)oc(=O)c3)s2)C1	PI3Kα (Homo sapiens (Human), UniProt P42336)	active
CCOC(=O)[C@@H]1CCN(C(=O)Nc2nc(C)c(-c3cc(C(C)(C)C(F)(F)F)oc(=O)c3)s2)[C@@H]1C(N)=O	PI3Kα (Homo sapiens (Human), UniProt P42336)	active

###

Test: Rat pharmacokinetics, cassette dosed free Compound (14)
Format: in vivo
Details: in vivo, IV 0.1 mg/kg, 1 mL/kg (10-in-One), read-out: VDss
Assay Endpoint: Vd (L/kg)
Just the number please, in L/kg, no unit attached.

Requested field: Vd. Item: Cc1nc(NC(=O)N2CCC[C@H]2C(N)=O)sc1-c1cc(C(C)(C)C(F)(F)F)oc(=O)c1 0.932
